# target_or_test_system: human CXCR4 (human)
# experiment_summary: competition vs [125I]-CXCL12, membranes of HEK293T cells expressing CXCR4
readout: Displacem. (%)

Query: # Displacem. (%) lookup, item 238D2-10GS-238D2 (VHH) EVQLVESGGGLVQTGGSLRLSCAASGFTFSSYAMSWVRQAPGKGLEWVSGIKSSGDSTRYAGSVKGRFTISRDNAKNMLYLQMYSLKPEDTAVYYCAKSRVSRTGLYTYDNRGQGTQVTVSSGGGGSGGGGSEVQLVESGGGLVQTGGSLRLSCAASGFTFSSYAMSWVRQAPGKGLEWVSGIKSSGDSTRYAGSVKGRFTISRDNAKNMLYLQMYSLKPEDTAVYYCAKSRVSRTGLYTYDNRGQGTQVTVSS
Reply: 95%

Query: # Displacem. (%) lookup, item 238D4-20GS-238D4 (VHH) EVQLMESGGGLVQAGGSLRLSCAASGRTFNNYAMGWFRRAPGKEREFVAAITRSGVRSGVSAIYGDSVKDRFTISRDNAKNTLYLQMNSLKPEDTAVYTCAASAIGSGALRRFEYDYSGQGTQVTVSSGGGGSGGGGSGGGGSGGGGSEVQLMESGGGLVQAGGSLRLSCAASGRTFNNYAMGWFRRAPGKEREFVAAITRSGVRSGVSAIYGDSVKDRFTISRDNAKNTLYLQMNSLKPEDTAVYTCAASAIGSGALRRFEYDYSGQGTQVTVSS
Reply: 96%

Query: # Displacem. (%) lookup, item 238D2-20GS-238D4 (VHH) EVQLVESGGGLVQTGGSLRLSCAASGFTFSSYAMSWVRQAPGKGLEWVSGIKSSGDSTRYAGSVKGRFTISRDNAKNMLYLQMYSLKPEDTAVYYCAKSRVSRTGLYTYDNRGQGTQVTVSSGGGGSGGGGSGGGGSGGGGSEVQLMESGGGLVQAGGSLRLSCAASGRTFNNYAMGWFRRAPGKEREFVAAITRSGVRSGVSAIYGDSVKDRFTISRDNAKNTLYLQMNSLKPEDTAVYTCAASAIGSGALRRFEYDYSGQGTQVTVSS
Reply: 103%

Query: # Displacem. (%) lookup, item 238D2-20GS-238C5 (VHH) EVQLVESGGGLVQTGGSLRLSCAASGFTFSSYAMSWVRQAPGKGLEWVSGIKSSGDSTRYAGSVKGRFTISRDNAKNMLYLQMYSLKPEDTAVYYCAKSRVSRTGLYTYDNRGQGTQVTVSSGGGGSGGGGSGGGGSGGGGSEVQLMESGGGLVQAGGSLRLACAASGFTFEDYAIGWFRKAPGKEREGVSCISGSDGSTTYADSVKGRFTISTDNAKNTVYLEMNSLKPEDTAVYYCAQQYGVGGRVVCPGPYEYDVWGQGTQVTVSS
Reply: 110%

The measured values listed here are drawn from patent US20110318347A1.
